Test system: Plasmodium falciparum
Assay: Calibr Malaria Delayed Death Assay SOP
Format: functional, organism-based
Design: scale not given: in the data most compounds retested in dose-response had high values
Settings: concentration 4.99e-06 (unit not given; other assays of the set use mol/L)
The campaign covered roughly 38,000 compounds. About 1,200 (3.2%) showed an effect of 50% or more. The median lay at about -58%. This is one part of a sample in which strong results are shown more often than they occur.
Simple rule here: Percent Effect less than -50% is Criterion met, otherwise Criterion not met.

MOLECULE | CLASS LABEL
COc1ccc(CN2C[C@H]3CCC[C@@H](CN(C)C4CC4)[C@H]3C2)cn1.O=C(O)C(F)(F)F.O=C(O)C(F)(F)F | Criterion not met
Cc1cc(-c2cc(S(=O)(=O)N3C[C@H](C4CC4)[C@@H](N)C3)c(C)s2)[nH]n1 | Criterion not met
COc1cc(N2C[C@H]3CCC[C@@H](CN(C)C4CC4)[C@H]3C2)ncn1.O=C(O)C(F)(F)F | Criterion met
CC(C)[C@H]1CN(c2ccncc2)C[C@@H]1NS(=O)(=O)N(C)C | Criterion met
Cc1ccc(-c2n[nH]cc2CNCC2CCN(CC(C)O)CC2)cc1 (stereo unspecified) | Criterion not met
O=C1CC2(CCN(CCCF)CC2)CN1Cc1cc(F)cc(F)c1 | Criterion not met
Cc1cc(N2CCCN(Cc3ccc(C)o3)CC2)ccn1 | Criterion not met
O=C(CO)N1CCC2(CC1)CC(=O)N(Cc1cc(F)cc(F)c1)C2 | Criterion met
O=c1[nH]c(CN2CCOC(Cn3cccn3)C2)nc2ccccc12 (stereo unspecified) | Criterion met
CC(C)N1CCC2(CC1)CC(=O)N(Cc1cc(F)cc(F)c1)C2 | Criterion not met
O=C(NC1CC1)[C@H]1C[C@@H]2CCN(Cc3ccc4c(c3)OCO4)C[C@@H]2O1.O=C(O)C(F)(F)F | Criterion not met
CC(C)(C)c1cnc(CN2CCC(CO)CC2)o1 | Criterion met
CN(C[C@@H]1CCC[C@@H]2CN(Cc3cccnc3)C[C@@H]21)C1CC1.O=C(O)C(F)(F)F.O=C(O)C(F)(F)F | Criterion not met
Cc1ncsc1CNCC(C)c1nc2ccccc2o1 (stereo unspecified) | Criterion met
CC(C)[C@@H]1CN(Cc2ccsc2)C[C@H]1NS(=O)(=O)N(C)C | Criterion not met
Cc1ccc(S(=O)(=O)N2C[C@H](C3CC3)[C@@H](N)C2)cc1F | Criterion not met
